From: patent US6028068A

Test: Lethal dose determination (LD16, LD50, LD84) in mice
Details: mouse, in vivo, ip
Where a name gives a salt, the structure may show the parent alone.
recorded metric: LD50 (mg/kg)
Express your answer in mg/kg, writing the number without its unit.

Entry CCOC(=O)C(=NOC)C1=NN=C(N2CCOCC2)SC1 [Compound 1, hydrobromide] — recorded LD50 = 830

* * *

Test: physchem
Format: physicochemical
Conditions: twin-water 1:9
Counter-ions that a name gives are not always drawn.
recorded metric: solubility (mg/mL)
Express your answer in mg/mL, writing the number without its unit.

Entry CCOC(=O)C(=NOC)C1=NN=C(N2CCOCC2)SC1 [Compound 1, hydrobromide] — recorded solubility = 40
